For each of the compounds below, state its pIC50.
# system: human CCR6 (Homo sapiens, UniProt P51684)
# Sequence (P51684 whole entry): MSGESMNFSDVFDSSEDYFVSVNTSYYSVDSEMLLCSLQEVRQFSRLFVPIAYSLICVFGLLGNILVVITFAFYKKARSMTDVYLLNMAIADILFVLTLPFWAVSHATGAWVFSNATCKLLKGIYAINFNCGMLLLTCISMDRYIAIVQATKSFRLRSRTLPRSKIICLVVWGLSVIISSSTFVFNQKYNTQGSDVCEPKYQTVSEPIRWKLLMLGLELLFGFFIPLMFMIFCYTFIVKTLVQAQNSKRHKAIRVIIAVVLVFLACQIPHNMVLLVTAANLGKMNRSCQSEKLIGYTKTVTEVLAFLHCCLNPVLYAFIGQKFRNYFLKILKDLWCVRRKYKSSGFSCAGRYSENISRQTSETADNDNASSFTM
# method.description: Migration assay (chemotaxis, ChemoTX)
# study.conditions: hCCR6-transfected Ba/F3 cells in human serum, migration to recombinant human CCL20 10 nM, 37° C. 45 minutes; read-out: Potency (IC50 value in the migration assay)
pIC50: −log10 of the molar value.

## Input Please give the measured pIC50 for this compound: Cc1cc(-c2ccc(S(=O)(=O)N3CC[C@@H](Nc4ccc(C(F)(F)F)cn4)[C@@H](O)C3)cc2)cc2c1CN(C(=O)N(C)C)C2
## Output > 9.00

## Input Please give the measured pIC50 for this compound: Cc1cc(C(F)(F)F)cnc1N[C@@H]1CCN(S(=O)(=O)c2ccc(-c3cnc(C(N)=O)n3C)cc2)C[C@@H]1O
## Output > 9.00

## Input Please give the measured pIC50 for this compound: CN(C)C1CN(c2cc(-c3ccc(S(=O)(=O)N4CC[C@@H](Nc5ccc(C(F)(F)F)cn5)[C@@H](O)C4)cc3)ccn2)C1
## Output 8.00 to 9.00

## Input Please give the measured pIC50 for this compound: COc1cc(-c2ccc(S(=O)(=O)N3CC[C@@H](Nc4ccc(C(F)(F)F)cn4)[C@@H](O)C3)cc2)ccn1
## Output 8.00 to 9.00

## Input Please give the measured pIC50 for this compound: NC1CCN(c2ccc(-c3ccc(S(=O)(=O)N4CC[C@@H](Nc5ccc(C(F)(F)F)cn5)[C@@H](O)C4)cc3)cn2)CC1
## Output > 9.00

## Input Please give the measured pIC50 for this compound: Nc1n[nH]c2ccc(-c3ccc(S(=O)(=O)N4CC[C@@H](Nc5ccc(C(F)(F)F)cn5)[C@@H](O)C4)cc3)cc12
## Output > 9.00

## Input Please give the measured pIC50 for this compound: CN(C)C1CCN(c2ccc(-c3ccc(S(=O)(=O)N4CC[C@@H](Nc5ccc(C(F)(F)F)cn5)[C@@H](O)C4)cc3)cn2)CC1
## Output 8.00 to 9.00

Values were extracted from patent US12018016B2.
